measurementTarget: serotonin transporter (SERT) (Homo sapiens)
Construct: expressed in transfected cells; host or cells: HEK-293
Sequence (P31645 whole entry, species assumed): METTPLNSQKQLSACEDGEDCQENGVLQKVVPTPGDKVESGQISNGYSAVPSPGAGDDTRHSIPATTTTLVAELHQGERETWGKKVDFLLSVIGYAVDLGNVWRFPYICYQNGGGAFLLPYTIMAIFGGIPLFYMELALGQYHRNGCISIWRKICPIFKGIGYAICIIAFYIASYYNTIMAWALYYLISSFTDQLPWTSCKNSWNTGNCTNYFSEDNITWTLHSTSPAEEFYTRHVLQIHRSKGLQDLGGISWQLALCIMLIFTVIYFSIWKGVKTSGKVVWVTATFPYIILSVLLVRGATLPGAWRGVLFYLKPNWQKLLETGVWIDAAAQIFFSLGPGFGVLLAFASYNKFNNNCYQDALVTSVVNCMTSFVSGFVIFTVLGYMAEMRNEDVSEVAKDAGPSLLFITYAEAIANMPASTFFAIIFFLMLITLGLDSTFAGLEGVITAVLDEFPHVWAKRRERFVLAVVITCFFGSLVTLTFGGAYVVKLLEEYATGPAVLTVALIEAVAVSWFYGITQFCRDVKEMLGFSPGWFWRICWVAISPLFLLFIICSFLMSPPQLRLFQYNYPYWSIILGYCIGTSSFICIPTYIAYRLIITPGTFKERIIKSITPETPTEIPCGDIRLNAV
assayInfo: Serotonin reuptake inhibition, [3H]-5-HT, HEK-293 cells transfected with 5-HT transporter cDNA
Type: cell-based
appliedConditions: concentration at which Ratio % is 50%; 6 concentrations 1 nM to 1 μM; read-out: Triple reuptake inhibition (IC50, μM) SERT
Quick reference for log10 of IC50 among some molecules
parameterMeasured: log10 of IC50 (log10 of the value in µM)

[
  {
    "molecule": "O=S(=O)(NCCCN1CCN(c2ccc(Cl)cc2)CC1)c1ccc2ccccc2n1 [Example 73]",
    "measurementTarget": "serotonin transporter (SERT) (Homo sapiens)",
    "log10 of IC50": -0.99
  },
  {
    "molecule": "O=S(=O)(NCCCN1CCC(Cc2ccccc2)CC1)c1ccc2ccccc2n1 [Example 57]",
    "measurementTarget": "serotonin transporter (SERT) (Homo sapiens)",
    "log10 of IC50": -0.46
  },
  {
    "molecule": "O=S(=O)(NCCCN1CCC(Cc2ccccc2)CC1)c1ccc(Oc2ccccc2)cc1 [Example 13]",
    "measurementTarget": "serotonin transporter (SERT) (Homo sapiens)",
    "log10 of IC50": 0.03
  },
  {
    "molecule": "CCCCOc1ccc(S(=O)(=O)NCCCN2CCC(Cc3cccc(Cl)c3)CC2)cc1 [Example 31]",
    "measurementTarget": "serotonin transporter (SERT) (Homo sapiens)",
    "log10 of IC50": -0.67
  },
  {
    "molecule": "O=C(CCN1CCCCC1)Nc1ccc(S(=O)(=O)NCCCN2CCC(Cc3ccccc3)CC2)cc1 [Example 17]",
    "measurementTarget": "serotonin transporter (SERT) (Homo sapiens)",
    "log10 of IC50": -1.24
  },
  {
    "molecule": "CCCCOc1ccc(S(=O)(=O)NCCCN2CCC(Cc3ccc(Cl)c(Cl)c3)CC2)cc1 [Example 20]",
    "measurementTarget": "serotonin transporter (SERT) (Homo sapiens)",
    "log10 of IC50": -0.30
  },
  {
    "molecule": "CCCCOc1ccc(S(=O)(=O)NCCCN2CCC(Cc3ccc(F)cc3)CC2)cc1 [Example 32]",
    "measurementTarget": "serotonin transporter (SERT) (Homo sapiens)",
    "log10 of IC50": -0.41
  },
  {
    "molecule": "O=S(=O)(NCCCN1CCC(Cc2ccccc2)CC1)c1ccc(OC(F)(F)F)cc1 [Example 34]",
    "measurementTarget": "serotonin transporter (SERT) (Homo sapiens)",
    "log10 of IC50": 0.41
  },
  {
    "molecule": "O=S(=O)(NCCCN1CCC(Cc2ccccc2)CC1)c1cccc2ccccc12 [Example 55]",
    "measurementTarget": "serotonin transporter (SERT) (Homo sapiens)",
    "log10 of IC50": 0.16
  },
  {
    "molecule": "CCCCOc1ccc(S(=O)(=O)NCCN2CCC(c3c[nH]c4ccccc34)CC2)cc1 [Example 6]",
    "measurementTarget": "serotonin transporter (SERT) (Homo sapiens)",
    "log10 of IC50": -0.34
  },
  {
    "molecule": "COc1ccc(S(=O)(=O)NCCCN2CCC(Cc3ccccc3)CC2)cc1 [Example 14]",
    "measurementTarget": "serotonin transporter (SERT) (Homo sapiens)",
    "log10 of IC50": 0.24
  },
  {
    "molecule": "CCCCOc1ccc(S(=O)(=O)NCCCN2CCC(Cc3ccc(F)c(F)c3)CC2)cc1 [Example 21]",
    "measurementTarget": "serotonin transporter (SERT) (Homo sapiens)",
    "log10 of IC50": -0.34
  },
  {
    "molecule": "CCCCOc1ccc(S(=O)(=O)NCCCN2CCC(Cc3ccc(OC)cc3)CC2)cc1 [Example 30]",
    "measurementTarget": "serotonin transporter (SERT) (Homo sapiens)",
    "log10 of IC50": -0.27
  },
  {
    "molecule": "O=S(=O)(NCCCN1CCC(Cc2ccccc2)CC1)c1ccc(-c2ccccc2)cc1 [Example 56]",
    "measurementTarget": "serotonin transporter (SERT) (Homo sapiens)",
    "log10 of IC50": -0.12
  },
  {
    "molecule": "O=S(=O)(NCCCN1CCC(Cc2ccccc2)CC1)c1ccc2ccccc2c1 [Example 54]",
    "measurementTarget": "serotonin transporter (SERT) (Homo sapiens)",
    "log10 of IC50": 0.29
  },
  {
    "molecule": "O=S(=O)(NCCCN1CCC(Cc2ccccc2)CC1)c1ccc(-c2ccc(F)cc2)cc1 [Example 58]",
    "measurementTarget": "serotonin transporter (SERT) (Homo sapiens)",
    "log10 of IC50": 0.26
  },
  {
    "molecule": "CCCCOc1ccc(S(=O)(=O)NCCCN2CCC(c3ccc(Cl)c(Cl)c3)CC2)cc1 [Example 22]",
    "measurementTarget": "serotonin transporter (SERT) (Homo sapiens)",
    "log10 of IC50": -0.22
  },
  {
    "molecule": "O=S(=O)(NCCN1CCC(Cc2ccccc2)CC1)c1ccc(-c2ccccc2)cc1 [Example 40]",
    "measurementTarget": "serotonin transporter (SERT) (Homo sapiens)",
    "log10 of IC50": 0.49
  },
  {
    "molecule": "CCCCOc1ccc(S(=O)(=O)NCCCN2CCC(Cc3ccccc3)CC2)cc1 [Example 10]",
    "measurementTarget": "serotonin transporter (SERT) (Homo sapiens)",
    "log10 of IC50": -0.32
  }
]
